Please go through the items and note down their pEC50.
target: RUP3 (Homo sapiens, UniProt Q8TDV5); construct: read from the listing, own knowledge; test: RUP3 dose responses in melanophores; conditions: melanophores transfected with RUP3 expression vector
Sequence (Q8TDV5 with tags, fused parts or gaps): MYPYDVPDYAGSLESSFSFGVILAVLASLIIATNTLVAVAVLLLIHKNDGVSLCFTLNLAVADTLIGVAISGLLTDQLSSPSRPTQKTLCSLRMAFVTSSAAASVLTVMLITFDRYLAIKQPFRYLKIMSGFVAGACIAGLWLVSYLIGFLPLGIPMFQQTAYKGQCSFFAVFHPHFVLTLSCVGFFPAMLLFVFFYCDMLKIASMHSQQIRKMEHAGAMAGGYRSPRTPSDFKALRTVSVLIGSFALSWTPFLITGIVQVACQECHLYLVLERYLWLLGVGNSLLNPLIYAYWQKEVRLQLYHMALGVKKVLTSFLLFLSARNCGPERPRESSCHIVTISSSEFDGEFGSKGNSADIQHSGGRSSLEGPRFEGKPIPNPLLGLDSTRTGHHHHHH
The read-out pEC50 is expressed as -log10 of concentration in moles per litre.

# returns recorded pEC50 (system: RUP3 (Homo sapiens, UniProt Q8TDV5)) for CC(C)(C)OC(=O)N1CCC(Oc2ncnc3c2nnn3-c2ccc(S(C)(=O)=O)cc2)CC1 7.89

Also check CC(C)(C)OC(=O)N1CCC(Oc2ncnc3c2ncn3-c2ccc(S(C)(=O)=O)nc2)CC1 7.23

Entry CC(C)OC(=O)N1CCC(Oc2ncnc3c2cnn3-c2ccc(S(C)(=O)=O)cc2)CC1 please 7.90

All figures here come from patent US8410119B2.
